- ASSAY_NAME: RP, Merck Supelco Ascentis Express C18, 100 × 2.1 mm, 2 µm, 40 °C, 0.2 mL/min, estimated dead time 1.1 min; A: water + 0.1% formic acid, pH 3; B: acetonitrile + 0.1% formic acid, pH 3; gradient (min/%B) 0/5 2/5 17/99.9 20/99.9
- TEST_SETTINGS: stereoisomer not certain
Label label 1 when LC retention time >= 5 min; otherwise label 0.

INSERT INTO assay_data (compound, answer_label) VALUES
  ('O=C(O)C(O)c1ccccc1 (configuration not stated) [MANDELATE]', 'label 0'),
  ('Cn1c(=O)[nH]c2ncn(C)c2c1=O [PARAXANTHINE]', 'label 0'),
  ('NC(Cc1c[nH]c2ccc(O)cc12)C(=O)O (configuration not stated) [5-HYDROXYTRYPTOPHAN]', 'label 0'),
  ('CC(C)(CO)C(O)C(=O)NCCC(=O)O (configuration not stated) [PANTOTHENATE]', 'label 0'),
  ('CCCCCCSCC(NC(=O)CCC(N)C(=O)O)C(=O)NCC(=O)O (configuration not stated) [S-HEXYL-GLUTATHIONE]', 'label 1'),
  ('O=C(O)Cc1cccc(O)c1 [3-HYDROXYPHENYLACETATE]', 'label 1'),
  ('CCOC(=O)C(=O)C(C)C(=O)OCC (configuration not stated) [DIETHYL 2-METHYL-3-OXOSUCCINATE]', 'label 1'),
  ('CCC(C)C(=O)C(=O)O (configuration not stated) [3-METHYL-2-OXOVALERATE]', 'label 0');

(Q) Please indicate if the recorded LC retention time for Cc1c[nH]c(=O)[nH]c1=O [THYMINE] meets or exceeds 5 min.
(A) label 0

(Q) Check this compound for LC retention time at or above 5 min: CC(CCC(=O)O)C1CCC2C3C(O)CC4CC(O)CCC4(C)C3CCC12C (configuration not stated) [URSODEOXYCHOLATE]
(A) label 1

(Q) Say whether O=Cc1ccc(O)cc1 [4-HYDROXYBENZALDEHYDE] shows LC retention time of 5 min or more.
(A) label 1

(Q) I'd appreciate it if you could say whether CCCCCCCCCC(C)=O [2-UNDECANONE] has LC retention time at least equal to 5 min.
(A) label 1

(Q) Check the entry O=C(O)CCc1ccccc1O [3-(2-HYDROXYPHENYL)PROPANOATE] : does LC retention time equal or exceed 5 min?
(A) label 1

(Q) Determine whether this compound has LC retention time no lower than 5 min: O=C(O)/C=C/c1ccccc1 [TRANS-CINNAMATE]
(A) label 1

(Q) Is it the case that CCC(C)C(N)C(=O)O (configuration not stated) [ISOLEUCINE] has LC retention time reaching or exceeding 5 min?
(A) label 0

(Q) Reported LC retention time at or above 5 min? O=C1CCC(C(=O)O)N1 (configuration not stated) [OXOPROLINE]
(A) label 0

(Q) LC retention time >= 5 min for N[C@@H](Cc1cc(I)c(O)c(I)c1)C(=O)O [3,5-DIIODO-L-TYROSINE] ?
(A) label 1

(Q) Please tell me: is the compound CCCCCCCCC(=O)[O-] [NONANOATE] at or over 5 min in terms of LC retention time?
(A) label 1

====

- ASSAY_NAME: RP, Merck Supelco Ascentis Express C18, 100 × 2.1 mm, 2 µm, 40 °C, 0.35 mL/min, estimated dead time 0.63 min; A: water + 0.1% formic acid, pH 3; B: acetonitrile + 0.1% formic acid, pH 3; gradient (min/%B) 0/5 2/5 17/99.9 20/99.9
- TEST_SETTINGS: stereoisomer not certain
MEASURED_METRIC: LC retention time (min)
// units = min; emit number, no label

INSERT INTO measurements (molecule, unit_annotation, meas_value) VALUES
  ('O=C(O)c1ccnc2ccccc12 [4-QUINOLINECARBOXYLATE]', 'min', 0.88),
  ('O=C(O)Cc1ccc(O)cc1 [P-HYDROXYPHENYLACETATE]', 'min', 3.64),
  ('CC(=O)NC(Cc1c[nH]c2ccccc12)C(=O)O (stereo not given)', 'min', 5.32),
  ('NC(=O)c1ccccc1O [SALICYLAMIDE]', 'min', 4.34);

(Q) Provide one value: measured LC retention time of CC1NC(=O)NC1CCCCCC(=O)O (stereo not given)
(A) 4.81
